# System: MOLT-4 leukemia
# METHOD_NOTES: NCI-60 one-dose screen, 48 h (100 = growth as untreated, 0 = no growth, -100 = all killed)
# CONDITION_SUMMARY: 10 µM unless noted
Compounds without any hit were thinned out: in the full panel of roughly 83,000, 20% have a hit.
Reported growth values for a set of molecules
PROPERTY: growth (%)

MOLECULE	TARGET_SYSTEM	QUANTITY_UNIT	READOUT_NUMBER
CCOC(=O)c1sc2nc(-c3cccc(O)c3)nc(N3CCOCC3)c2c1C	MOLT-4 leukemia	%	29.1
Cc1ccc2oc(=O)cc(C3c4ccc([nH]4)C(c4cc(=O)oc5ccc(C)cc45)c4ccc([nH]4)C(c4cc(=O)oc5ccc(C)cc45)c4ccc([nH]4)C(c4cc(=O)oc5ccc(C)cc45)c4ccc3[nH]4)c2c1 (centres undefined)	MOLT-4 leukemia	%	-22.4
O=C(/C=C/c1ccc(C(F)(F)F)cc1)Nc1ccc(C=C2c3ccccc3C(=O)c3ccccc32)cc1	MOLT-4 leukemia	%	47.5
O=C1c2cc3c(cc2-c2c1c1ccc(F)cc1c(=O)n2CCCNCCO)OCO3	MOLT-4 leukemia	%	-25
COc1ccc(-c2nc3cc(C(=O)Nc4cc(OC)c(OC)c(OC)c4)ccc3n2C2CCCCC2)cc1	MOLT-4 leukemia	%	83.1
O=C1c2cc3c(cc2-c2c1c1ccc(F)cc1c(=O)n2C[C@H](O)[C@@H](O)[C@H](O)CO)OCO3	MOLT-4 leukemia	%	-6.28
O=C1NC(=O)C(c2ccc(Cl)cc2Cl)N1 (centres undefined)	MOLT-4 leukemia	%	94.3
CCCCn1c(-c2ccc(C(=O)O/N=C(\N)c3ccc4c(c3)OCO4)cc2)nc(-c2ccccc2)c1-c1ccccc1	MOLT-4 leukemia	%	7.23
Oc1cccc(-c2nc(N3CCOCC3)c3c4c(sc3n2)CCCC4)c1	MOLT-4 leukemia	%	24
OC(c1cc2cc(Cl)c(Cl)cc2c2cc(C(F)(F)F)ccc12)C1CCCCN1 (centres undefined)	MOLT-4 leukemia	%	-60.3
CC(=O)O[C@H]1CC[C@]2(C)[C@H]3CC=C4[C@@H]5CC(C)(C)CC[C@]5(C(=O)NCCNCCNCCN)CC[C@@]4(C)[C@]3(C)CC[C@H]2C1(C)C	MOLT-4 leukemia	%	-13
O=c1ccccc(-c2ccc(Br)cc2)c1O	MOLT-4 leukemia	%	5.09
CCOC(=O)C(C)(C#N)C1C=CCCC1 (centres undefined)	MOLT-4 leukemia	%	98
Oc1ccc(N=Cc2ccccc2O)cc1	MOLT-4 leukemia	%	89.6

---

# Test system: UO-31 renal
# METHOD_NOTES: NCI-60 one-dose screen, 48 h (100 = growth as untreated, 0 = no growth, -100 = all killed)
# CONDITION_SUMMARY: 10 µM unless noted
Compounds without any hit were thinned out: in the full panel of roughly 83,000, 20% have a hit. Activity calls are given as the source filed them. The calls were made as follows: active = growth percent below 10; inactive = the rest.
PROPERTY: growth

MOLECULAR_STRING	PROPERTY	RESULT
CN(Cc1cc(Cl)cc(Cl)c1O)Cc1cc(Cl)cc(Cl)c1O	growth	46.2% (inactive)
CCC(=O)c1ccc(Cl)s1	growth	98% (inactive)
CCCCCCN(CCCCCC)C(=N)c1ccnc2ccccc12	growth	36.5% (inactive)
OCc1ccc(N2CCc3cccc(F)c3C2)cc1Cl	growth	91.6% [0.1 µM] (inactive)

---

# System: MDA-MB-231 breast
# METHOD_NOTES: NCI-60 one-dose screen, 48 h
# CONDITION_SUMMARY: 10 µM unless noted
Compounds without any hit were thinned out: in the full panel of roughly 83,000, 20% have a hit. The source made the active and inactive calls. Rule for the calls: active = growth percent below 10; inactive = the rest.
Classes used: active, inactive

COMPOUND	TARGET_SYSTEM	CLASS_LABEL
Cc1cc(C)nc(SC2=C(Nc3ccc(O)cc3)C(=O)N(Cc3ccccc3)C2=O)n1	MDA-MB-231 breast	inactive
C#Cc1cccc(NC(=O)c2ccccc2NC(=O)C=C)c1	MDA-MB-231 breast	inactive
CN(C)CCN1C(=O)c2cccc3c(N)ccc(c23)C1=O	MDA-MB-231 breast	inactive
Cn1c(=O)[nH]c(=O)c2nc(CCC(=O)NCCC(=O)O)c(=O)[nH]c21	MDA-MB-231 breast	inactive
C#CCOc1ccc2ncnc(Nc3cccc(CNC(=O)C=C)c3)c2c1	MDA-MB-231 breast	inactive
Nc1n[nH]c2cc(F)c([C@@H]3Nc4ccc5[nH]ncc5c4[C@H]4C5CCC(C5)[C@@H]34)cc12 (stereo partly drawn)	MDA-MB-231 breast	inactive
O=[N+]([O-])c1ccc(Nc2nc(NCCN3CCOCC3)ncc2[N+](=O)[O-])cc1	MDA-MB-231 breast	inactive
Cc1ccc(NS(=O)(=O)c2ccc(-c3cnc(C4CC4)o3)cc2)cc1C	MDA-MB-231 breast	inactive
COc1ccc(C2CC(c3ccc4ccccc4c3)=NN2/C=C2\SC(=S)N(NC(=O)Cc3ccccc3Nc3c(Cl)cccc3Cl)C2=O)cc1 (stereo not drawn)	MDA-MB-231 breast	inactive
CN1CCN(c2nc(NCCCNc3ccnc4cc(Cl)ccc34)c3ccccc3n2)CC1	MDA-MB-231 breast	active
FC(F)(F)c1[nH]ncc1-c1nc2ccc3n[nH]c(C#Cc4cccnc4)c3c2c2c1CCCC2	MDA-MB-231 breast	inactive
CC(=O)c1nc2ccccc2n1CC(=O)c1cccc(Cl)c1	MDA-MB-231 breast	inactive
COc1ccc(CN2c3ccccc3Oc3ccccc32)cc1F	MDA-MB-231 breast	inactive

---

# System: NCI-H522 lung
# METHOD_NOTES: NCI-60 one-dose screen, 48 h (100 = growth as untreated, 0 = no growth, -100 = all killed)
# CONDITION_SUMMARY: 10 µM unless noted
# Procedure: Growth inhibition of the NCI-H522 human Non-Small Cell Lung tumor cell line is measured as a screen for anti-cancer activity. Cells are grown in 96 well plates and exposed to the test compound for 48 hours. Compounds are tested at a single concentration, which is 10^-5 M for most compounds. The reported endpoint is percent growth (GI% or GIPRCNT), where numbers from 0 - 100% represent growth inhibition, and numbers from -100% - 0 represent cell death. […]
About 83,000 compounds went through this panel and 20% of them were active in at least one assay; those are over-represented in the sample as a whole.
Reported growth values for a set of compounds
PROPERTY: growth (%)

COMPOUND	PROPERTY	QUANTITY_UNIT	READOUT_NUMBER
CN(C)S(=O)(=O)c1cccc(-c2nc3sc4c(c3c(=O)[nH]2)CCCC4)c1	growth	%	54.7
Cc1ccc(NC(=O)C2CCC(CN3CCN(C)CC3)CC2)cc1Nc1nccc(-c2cccnc2)n1 (stereo not given)	growth	%	129
CCOC(=O)n1cc(-c2nonc2-c2cn(C)c3ncccc23)c2ccccc21	growth	%	71.1
O=C(CN1CCCCC1)Nc1ccc2oc(=O)ccc2c1	growth	%	84.6
COc1cc(/C=C/C(=O)c2c(C)oc3nc[nH]c(=O)c23)cc(OC)c1OC	growth	%	47.7

---

# Tested on: SK-OV-3 ovarian
# METHOD_NOTES: NCI-60 one-dose screen, 48 h (100 = growth as untreated, 0 = no growth, -100 = all killed)
# CONDITION_SUMMARY: 10 µM unless noted
This is part of a sample that, as a whole, favours compounds with a hit. Of some 83,000 tested, about 20% had one in any assay.
Reported growth values for a set of compounds
PROPERTY: growth (%)

COMPOUND	PROPERTY	QUANTITY_UNIT	READOUT_NUMBER
O=[N+]([O-])c1ccc2c(c1)Cc1cc(F)ccc1-2	growth	%	99.1
COc1ccc2c(c1)O/C(=C\c1cccc(OCC(=O)Nc3nc4c(s3)CCCC4)c1)C2=O	growth	%	90.9
CCCCn1cnc2c(Sc3c([N+](=O)[O-])ncn3C)nc(N)nc21	growth	%	101
COc1cccc(Nc2nc(SC)nc(-c3cccc([N+](=O)[O-])c3)c2C#N)c1	growth	%	31.3
Cc1ccc2c(C(C[N+](=O)[O-])c3ccccc3F)c(-c3ccccc3)[nH]c2c1 (centres undefined)	growth	%	31.5
O=C(N/N=C/c1c[nH]c2ccccc12)c1cc(-c2ccccc2)on1	growth	%	91
Cc1nc(/N=C(\N)NC(=O)Nc2cccc([N+](=O)[O-])c2)sc1C	growth	%	101
C=CC(=O)Nc1cccc(-c2nc(SC)nc(NCCN3CCOCC3)c2C#N)c1	growth	%	108
O=C(/C=C/C=C/c1ccc2c(c1)OCO2)N/N=C\c1ccc(O)cc1O	growth	%	27

---

# Tested on: SK-MEL-5 melanoma
# METHOD_NOTES: NCI-60 one-dose screen, 48 h (100 = growth as untreated, 0 = no growth, -100 = all killed)
# CONDITION_SUMMARY: 10 µM unless noted
Compounds without any hit were thinned out: in the full panel of roughly 83,000, 20% have a hit. Activity calls are given as the source filed them. Rule for the calls: active = growth percent below 10; inactive = the rest.
Reported growth values for a set of molecules
PROPERTY: growth

MOLECULE	TARGET_SYSTEM	PROPERTY	RESULT
O=C1/C(=C/c2ccc3c(c2)OCO3)SC(=S)N1CCc1ccc(O)cc1	SK-MEL-5 melanoma	growth	98.2% (inactive)
COc1ccc(-c2cc(NC(=O)Nc3ccc4ncsc4c3)no2)cc1	SK-MEL-5 melanoma	growth	99.5% (inactive)
COc1ccc(Nc2nc(SC)nc(-c3cccc([N+](=O)[O-])c3)c2C#N)cc1	SK-MEL-5 melanoma	growth	70.9% (inactive)
Cn1c(NCCc2ccc(O)c(O)c2)nc2c1c(=O)n(Cc1ccc(Br)cc1)c(=O)n2C	SK-MEL-5 melanoma	growth	57.6% (inactive)
N#Cc1c(N)n(CCNC(=O)c2ccccc2)c2nc3ccccc3nc12	SK-MEL-5 melanoma	growth	132% (inactive)
C#Cc1cccc(NC(=O)c2ccccc2NC(=O)CCl)c1	SK-MEL-5 melanoma	growth	87.7% [8.25 µM] (inactive)
COc1cc(/C=C/C(=O)Nc2cccnc2Nc2ccc(F)cc2)cc(OC)c1OC	SK-MEL-5 melanoma	growth	95.8% (inactive)
COC(=O)c1ccc(NC(=O)c2ccc(-c3cccc([N+](=O)[O-])c3)o2)cc1	SK-MEL-5 melanoma	growth	97.8% (inactive)
CCn1c(O)c(/C=N/NC(=O)C(C)c2ccc(CC(C)C)cc2)sc1=S (stereo not given)	SK-MEL-5 melanoma	growth	17% (inactive)
Cc1cc(NS(=O)(=O)c2ccc(-c3cnc(C4CC4)o3)cc2)ccc1Cl	SK-MEL-5 melanoma	growth	24.8% (inactive)
Cn1cc(C(=O)c2nc(-c3c[nH]c4ccc(Br)cc34)no2)c2cc(F)ccc21	SK-MEL-5 melanoma	growth	83.8% (inactive)
CSc1nc(-c2cccc(NC(=O)CCl)c2)c(C#N)c(=O)n1C	SK-MEL-5 melanoma	growth	79.4% (inactive)
C#CCOc1ccc2ncnc(N3CCC(NC(=O)CCl)CC3)c2c1	SK-MEL-5 melanoma	growth	75% [8.25 µM] (inactive)
COc1cccc(C2=NN3C(C2)c2cc(Br)cc(OC)c2OC32CCN(Cc3ccccc3)CC2)c1 (stereo not given)	SK-MEL-5 melanoma	growth	99.5% (inactive)
CSc1nc(Nc2cccc(NC(=O)CCl)c2)c(C#N)c(-c2cccc([N+](=O)[O-])c2)n1	SK-MEL-5 melanoma	growth	34.3% (inactive)

Cited source for all entries: PubChem BioAssay (NCI)
